Sourced from patent US20220227745A1

# Target: FXR LBD, GST (Homo sapiens, UniProt Q96RI1)
# Construct: FXR LBD, GST; purchased Invitrogen PV4834
# Sequence (Q96RI1 262-486 limits assumed): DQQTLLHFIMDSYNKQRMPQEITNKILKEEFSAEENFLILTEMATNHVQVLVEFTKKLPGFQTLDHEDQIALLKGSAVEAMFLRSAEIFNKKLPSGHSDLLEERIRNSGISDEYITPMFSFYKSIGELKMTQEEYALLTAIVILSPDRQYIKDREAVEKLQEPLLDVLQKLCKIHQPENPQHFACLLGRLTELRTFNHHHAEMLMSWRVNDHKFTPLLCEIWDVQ
# Test method notes: FXR Binding Assay (TR-FRET, Fluorescein-SRC2-2 coactivator peptide)
# Run conditions: % Activity relative to positive control; read-out: Pct Effect (Emax %)
Property: Emax (%)
// note: answer is a bare numeric in %

See these solved cases before continuing.
[[record]]
compound = "Cn1cc(C(=O)O)c2ccc(N3CCN(CCc4c(-c5c(F)cccc5Cl)noc4C4CC4)CC3)cc21"
target = "FXR LBD, GST (Homo sapiens, UniProt Q96RI1)"
property = "Emax"
assay_value = 173

[[record]]
compound = "C[C@@H]1CN(CCc2c(-c3c(Cl)cccc3Cl)noc2C2CC2)C[C@@H](C)N1c1ccc2c(C(=O)O)cn(C)c2c1"
target = "FXR LBD, GST (Homo sapiens, UniProt Q96RI1)"
property = "Emax"
assay_value = 73.5

[[record]]
compound = "O=C(O)c1cc(F)c2nc(N3CCN(CCc4c(-c5ccccc5OC(F)(F)F)noc4C4CC4)CC3)sc2c1"
target = "FXR LBD, GST (Homo sapiens, UniProt Q96RI1)"
property = "Emax"
assay_value = 116


For the compound shown here, C[C@@H]1CN(c2ccc3c(C(=O)O)cn(C)c3c2)CCN1CCc1c(-c2c(Cl)cccc2Cl)noc1C1CC1 , give the reported Emax.
156

Could you do the same for Cn1cc(C(=O)O)c2ccc(N3CCN(CCc4c(-c5c(Cl)cccc5Cl)noc4C4CC4)C(C)(C)C3)cc21 , please?
133

Same for O=C(O)c1cc(F)c2nc(N3C4CCC3CN(CCc3c(-c5ccccc5OC(F)(F)F)noc3C3CC3)C4)sc2c1
47.7
